Test system: K562
Assay Procedure: Cytotoxicity against human K562 cells assessed as reduction in cell viability measured after 72 hrs by CCK8 assay
Type: functional, cell-based
Test Parameters: Homo sapiens, K562, 72 h; read-out: IC50
// returns no (0) unless IC50 is strictly below 3000 nM, in which case yes (1)

Structure String: Cn1c(=O)/c(=C/c2ccccc2)[nH]c(=O)/c1=C/c1ccccc1
Experimental System: K562
Qualitative Label: yes (1)

Structure String: C=CCn1c(=O)/c(=C/CCCC)[nH]c(=O)/c1=C/c1ccc(OC)cc1
Experimental System: K562
Qualitative Label: yes (1)

Structure String: C=CCn1c(=O)/c(=C/CCCCCCC)[nH]c(=O)/c1=C/c1ccc(OC)cc1
Experimental System: K562
Qualitative Label: yes (1)

Structure String: C=CCn1c(=O)/c(=C/CCCCCCCCC)[nH]c(=O)/c1=C/c1ccccc1OC
Experimental System: K562
Qualitative Label: no (0)

Structure String: C=CCn1c(=O)/c(=C/CCC)[nH]c(=O)/c1=C/c1ccc(OC)cc1
Experimental System: K562
Qualitative Label: yes (1)

Structure String: C=CCn1c(=O)/c(=C/CCCCC)[nH]c(=O)/c1=C/c1ccc(OC)cc1
Experimental System: K562
Qualitative Label: yes (1)

Structure String: C=CCn1c(=O)/c(=C/CCCCCCCCC)[nH]c(=O)/c1=C/c1ccc(OC)cc1
Experimental System: K562
Qualitative Label: no (0)

Structure String: C=CCn1c(=O)/c(=C/CCCCC)[nH]c(=O)/c1=C/c1ccccc1OC
Experimental System: K562
Qualitative Label: yes (1)

Structure String: C=CCn1c(=O)/c(=C/CC)[nH]c(=O)/c1=C/c1ccc(OC)cc1
Experimental System: K562
Qualitative Label: yes (1)

Structure String: C=CCn1c(=O)/c(=C/c2cccc(Cl)c2Cl)[nH]c(=O)/c1=C/c1ccccc1OC
Experimental System: K562
Qualitative Label: yes (1)

* * *

Test system: U-937
Assay Procedure: Cytotoxicity against human U-937 cells assessed as reduction in cell viability measured after 72 hrs by CCK8 assay
Format: functional, cell-based
Test Parameters: Homo sapiens, U-937, 72 h; read-out: IC50
A collection of compounds and their measured log10 IC50
Observed Property: log10 IC50 (log10 of the value in nM)

Compound: C=CCn1c(=O)/c(=C/CCCC)[nH]c(=O)/c1=C/c1ccccc1OC
log10 IC50: 2.95
//
Compound: CC(C)(C)c1[nH]cnc1/C=c1\[nH]c(=O)/c(=C/c2ccccc2)[nH]c1=O [PLINABULIN]
log10 IC50: 0.83
//
Compound: C=CCn1c(=O)/c(=C/CCCCCCCC)[nH]c(=O)/c1=C/c1ccc(OC)cc1
log10 IC50: 3.57
//
Compound: C=CCn1c(=O)/c(=C/CCC)[nH]c(=O)/c1=C/c1ccc(OC)cc1
log10 IC50: 3.34
//
Compound: C=CCn1c(=O)/c(=C/CCCCCCCCC)[nH]c(=O)/c1=C/c1ccc(OC)cc1
log10 IC50: 4.01
//
Compound: C=CCn1c(=O)/c(=C/c2cccc(Cl)c2Cl)[nH]c(=O)/c1=C/c1ccccc1OC
log10 IC50: 2.70
//
Compound: C=CCn1c(=O)/c(=C/CC)[nH]c(=O)/c1=C/c1ccc(OC)cc1
log10 IC50: 3.17
//
Compound: C=CCn1c(=O)/c(=C/CCCCCC)[nH]c(=O)/c1=C/c1ccc(OC)cc1
log10 IC50: 2.78
//
Compound: Cn1c(=O)/c(=C/c2ccccc2)[nH]c(=O)/c1=C/c1ccccc1
log10 IC50: 3.15
//
Compound: C=CCn1c(=O)/c(=C/CCCCCC)[nH]c(=O)/c1=C/c1ccccc1OC
log10 IC50: 3.41
//
Compound: C=CCn1c(=O)/c(=C/CCCCCCC)[nH]c(=O)/c1=C/c1ccc(OC)cc1
log10 IC50: 3.04
//
Compound: C=CCn1c(=O)/c(=C/CCCCC)[nH]c(=O)/c1=C/c1ccc(OC)cc1
log10 IC50: 2.70
//
Compound: C=CCn1c(=O)/c(=C/CCCC)[nH]c(=O)/c1=C/c1ccc(OC)cc1
log10 IC50: 2.56
//
Compound: C=CCn1c(=O)/c(=C/CCC)[nH]c(=O)/c1=C/c1ccccc1OC
log10 IC50: 3.81
//
Compound: C=CCn1c(=O)/c(=C/CCCCCCCCC)[nH]c(=O)/c1=C/c1ccccc1OC
log10 IC50: 4.27
//
Compound: C=CCn1c(=O)/c(=C/CCCCC)[nH]c(=O)/c1=C/c1ccccc1OC
log10 IC50: 3.28

* * *

Test system: DU-145
Assay Procedure: Cytotoxicity against human DU-145 cells assessed as reduction in cell viability measured after 72 hrs by CCK8 assay
Assay type: functional, cell-based
Test Parameters: du-145
Observed Property: IC50

Structure String: C=CCn1c(=O)/c(=C/CCCCCCCCCCCCCCC)[nH]c(=O)/c1=C/c1cccc(OC)c1
Measured Value: Not Active
--
Structure String: C=CCn1c(=O)/c(=C/CCC)[nH]c(=O)/c1=C/c1ccccc1OC
Measured Value: Not Active
--
Structure String: C=CCn1c(=O)/c(=C/CCCCCCCCCCC)[nH]c(=O)/c1=C/c1ccccc1OC
Measured Value: Not Active
--
Structure String: C=CCn1c(=O)/c(=C/CCCCCCCCC)[nH]c(=O)/c1=C/c1cccc(OC)c1
Measured Value: Not Active
--
Structure String: C=CCn1c(=O)/c(=C/CCCCCCCC)[nH]c(=O)/c1=C/c1cccc(OC)c1
Measured Value: Not Active

* * *

Tested on: K562
Assay Procedure: Cytotoxicity against human K562 cells assessed as reduction in cell viability measured after 72 hrs by CCK8 assay
Type: functional, cell-based
Test Parameters: Homo sapiens, K562, 72 h; read-out: IC50
pIC50: −log10 of the molar value.
// pIC50 lookup, one value per entry

Compound: C=CCn1c(=O)/c(=C/CCCCCC)[nH]c(=O)/c1=C/c1ccccc1OC
pIC50: 5.44
//
Compound: CC(C)(C)c1[nH]cnc1/C=c1\[nH]c(=O)/c(=C/c2ccccc2)[nH]c1=O [PLINABULIN]
pIC50: 8.20
//
Compound: C=CCn1c(=O)/c(=C/CCC)[nH]c(=O)/c1=C/c1ccccc1OC
pIC50: 5.07
//
Compound: C=CCn1c(=O)/c(=C/CCCCCC)[nH]c(=O)/c1=C/c1ccc(OC)cc1
pIC50: 6.05
//
Compound: C=CCn1c(=O)/c(=C/CCCC)[nH]c(=O)/c1=C/c1ccccc1OC
pIC50: 5.85
//
Compound: C=CCn1c(=O)/c(=C/CCCCCCCC)[nH]c(=O)/c1=C/c1ccc(OC)cc1
pIC50: 5.25

* * *

Test system: HL-60
Assay Procedure: Cytotoxicity against human HL-60 cells assessed as reduction in cell viability measured after 72 hrs by CCK8 assay
Format: functional, cell-based
Test Parameters: Homo sapiens, HL-60, 72 h; read-out: IC50
pIC50: −log10 of the molar value.
Observed Property: pIC50

Compound: C=CCn1c(=O)/c(=C/CCC)[nH]c(=O)/c1=C/c1ccccc1OC
Experimental System: HL-60
Observed Property: pIC50
Measured Value: 4.69
//
Compound: C=CCn1c(=O)/c(=C/CCCCCCCCC)[nH]c(=O)/c1=C/c1ccccc1OC
Experimental System: HL-60
Observed Property: pIC50
Measured Value: 5.47
//
Compound: C=CCn1c(=O)/c(=C/CCCCCC)[nH]c(=O)/c1=C/c1ccc(OC)cc1
Experimental System: HL-60
Observed Property: pIC50
Measured Value: 5.47
//
Compound: CC(C)(C)c1[nH]cnc1/C=c1\[nH]c(=O)/c(=C/c2ccccc2)[nH]c1=O [PLINABULIN]
Experimental System: HL-60
Observed Property: pIC50
Measured Value: 7.83
//
Compound: C=CCn1c(=O)/c(=C/c2cccc(Cl)c2Cl)[nH]c(=O)/c1=C/c1ccccc1OC
Experimental System: HL-60
Observed Property: pIC50
Measured Value: 5.70
//
Compound: C=CCn1c(=O)/c(=C/CCCCC)[nH]c(=O)/c1=C/c1ccccc1OC
Experimental System: HL-60
Observed Property: pIC50
Measured Value: 4.87
//
Compound: C=CCn1c(=O)/c(=C/CCCCCC)[nH]c(=O)/c1=C/c1ccccc1OC
Experimental System: HL-60
Observed Property: pIC50
Measured Value: 4.97
//
Compound: C=CCn1c(=O)/c(=C/CCC)[nH]c(=O)/c1=C/c1ccc(OC)cc1
Experimental System: HL-60
Observed Property: pIC50
Measured Value: 5.21
//
Compound: C=CCn1c(=O)/c(=C/CCCC)[nH]c(=O)/c1=C/c1ccccc1OC
Experimental System: HL-60
Observed Property: pIC50
Measured Value: 6.30
//
Compound: C=CCn1c(=O)/c(=C/CCCCCCCC)[nH]c(=O)/c1=C/c1ccc(OC)cc1
Experimental System: HL-60
Observed Property: pIC50
Measured Value: 4.58
//
Compound: C=CCn1c(=O)/c(=C/CCCCCCCCC)[nH]c(=O)/c1=C/c1ccc(OC)cc1
Experimental System: HL-60
Observed Property: pIC50
Measured Value: 5.28
//
Compound: C=CCn1c(=O)/c(=C/CCCCCCC)[nH]c(=O)/c1=C/c1ccc(OC)cc1
Experimental System: HL-60
Observed Property: pIC50
Measured Value: 4.55
//
Compound: C=CCn1c(=O)/c(=C/CCCC)[nH]c(=O)/c1=C/c1ccc(OC)cc1
Experimental System: HL-60
Observed Property: pIC50
Measured Value: 6.05

Every entry's value here was drawn from ChEMBL document CHEMBL4715742.
